Test system: HOP-92 NSCLC
Assay: NCI tumour cell line growth inhibition, 48 h
// reported TGI for each item listed

MOLECULE	TGI
CCOC(=O)C1=C(N2CCCC2)C(=O)C(C(=O)OCC)C1 (stereo not given)	> 100 µM
Cc1cc(NS(=O)(=O)c2ccc(Nc3c4ccccc4nc4c(C(=O)NC(CO)(CO)CO)cccc34)cc2)no1	> 100 µM
COC1(C)CCC(OS(C)(=O)=O)CO1 (stereo not given)	> 100 µM
NC(=S)c1cccc(C2Nc3ccccc3O2)c1 (stereo not given)	> 100 µM
CN(Cc1cnc2nc(N)nc(N)c2n1)c1c(Cl)cc(C(=O)NC(CCC(=O)O)C(=O)O)cc1Cl (stereo not given)	> 100 µM
Cc1c2oc(=O)c(C#N)cc2c2ccccn12	> 100 µM
O=C1N=C2N=C(c3ccc(Cl)cc3)N(c3ccc(Cl)cc3)N2Sc2ccccc21	> 100 µM
O=S1(=O)N=C(SCc2c[nH]c3ccccc23)N(c2ccccc2)c2ccncc21	> 100 µM
Cc1c(C(=O)O)sc2nc[nH]c(=O)c12	> 100 µM
N#Cc1nc(CN2C(=O)c3ccccc3C2=O)oc1N	> 100 µM
CSC(=S)NCc1cn(C)c2ccccc12	> 100 µM
Cc1cc2ccccc2oc(=O)/c1=N\Nc1ccccc1	> 100 µM
CC1(C)Cc2ccccc2C(C)(Cl)C(=O)N1 (stereo not given)	> 10 µM
N/C(=N\N=C/c1c(O)cc(O)cc1O)NO	> 100 µM
CC(NC1CCCC[C@@H]1O)c1ccccc1 (stereo not given in full)	> 100 µM
CSCCC(NC(=O)C(Cc1c[nH]c2ccccc12)NC(=O)CCNC(=O)OC(C)(C)C)C(=O)NC(CC(=O)O)C(=O)NC(Cc1ccccc1)C(N)=O (stereo not given)	> 50 µM
CCOC(=O)c1c(SC(=O)c2ccc(Cl)cc2)n(-c2ccccc2)c(=S)n(-c2ccccc2)c1=O	> 100 µM
COc1cccc(C=NC23CC4CC(CC(C4)C2)C3)c1	> 100 µM
c1ccc(C2N=C(c3ccccn3)C(c3ccccn3)=NC2c2ccccc2)cc1 (stereo not given)	> 100 µM
C[C@@H]([C@H]1CC[C@@]2(C)[C@@H]3CC[C@@H]4C(=CC3=CC[C@]12C)CC[C@H](N(C)C)C4(C)C)N(C)C	> 100 µM

* * *

Tested on: SR leukemia
Assay: NCI tumour cell line growth inhibition, 48 h
Where a SMILES comes first, the peptide text is derived from it. Bridges are numbered along the chain shown (N, C = ends).

COMPOUND	TGI
Cc1cc2ccccc2n2c1nc1ccc(O)cc12	> 10 µM
O=C(Cc1nc2ccccc2s1)C(=O)Nc1cccc(C(F)(F)F)c1	> 100 µM
CC1=NN(c2ccccc2)C(=O)/C1=C\c1c(C)[nH]n(-c2ccccc2)c1=O	> 100 µM
C[C@]12CC[C@H]3[C@@H](CC=C4C[C@@H](O)CC[C@@]43C)[C@@H]1C/C(=C\c1ccc([N+](=O)[O-])cc1)[C@@H]2O	> 100 µM
COC(=O)N[C@@H](C)CNc1nccc(-c2cn(C(C)C)nc2-c2cc(Cl)cc(NS(C)(=O)=O)c2F)n1	> 84.7 µM
COC(=O)C1CCC(=O)NCCCCC(NC(=O)C(N)CC(=O)O)C(=O)N1 (stereo not drawn) (H-Asp-Lys-Glu-OMe; lactam 2-3; configuration not given here)	> 100 µM
CC(C)(O)c1cc(Nc2cc(Oc3cn(C4CC4)nc3C3CCOCC3)ccn2)ccn1	> 100 µM
c1ccc(N2CCN(CCN3CCc4c([nH]c5ccccc45)C3c3cccnc3)CC2)cc1 (stereo unspecified)	> 100 µM
Oc1ccc(Nc2nc(Cl)c3[nH]cnc3n2)cc1	> 100 µM
C(=Nc1ccc(-c2nc3ccccc3s2)cc1)c1cccs1	> 100 µM
COc1cccc(C=NC23CC4CC(CC(C4)C2)C3)c1	> 100 µM

* * *

Tested on: SK-MEL-28 melanoma
Assay: NCI tumour cell line growth inhibition, 48 h
PROPERTY NAME: TGI

COMPOUND	RESULT
Cc1c2oc(=O)c(C#N)cc2c2ccccn12	> 100 µM
O=[N+]([O-])/C(Cl)=C(\NCCO)C(Cl)=C(Cl)Cl	> 100 µM
COc1ccc(CN2c3ccccc3Sc3ccccc32)cc1O	32.2 µM
S=C(Nc1ccc(-c2nc3ccccc3s2)cc1)Nc1ccc(-c2nc3ccccc3s2)cc1	54.8 µM
COC1(C)CCC(OS(C)(=O)=O)CO1 (stereo unspecified)	> 100 µM
O=S1(=O)CCC2=CC(C(F)(F)F)=CC(C(F)(F)F)=CN21	4.54 µM
C=C1C(=O)OC2C[C@@]3(C)CCCC(=C)C3CC12 (stereo partly specified)	24 µM
CCOC(=O)C(Cc1cc(OC)c(CC(C(=O)OCC)C(=O)OCC)cc1OC)C(=O)OCC	> 100 µM
COc1ccc(/C=C/C(=O)c2cc(CN(C)C)c(O)c(CN(C)C)c2)cc1	> 100 µM
CCOC(=O)c1sc(NC(=O)COc2ccc(/C=C3\CCc4cc(OC)ccc4C3=O)cc2)nc1C	27.7 µM
COC1CCC(OC)C(c2nc3sccn3c2/C=N/N=C(N)N)C1 (stereo unspecified)	> 94.4 µM
COc1cccc(C=NC23CC4CC(CC(C4)C2)C3)c1	> 100 µM
CC(=O)/C(=N\N=C(N)N)c1ccccc1	> 100 µM
Cc1ccc(N=Nc2c(O)ccc3ccccc23)c(C)c1	> 100 µM
COc1ccc(/C=C(\C#N)c2cc(OC)c(OC)c(OC)c2)cc1	> 100 µM
COc1ccc(NCn2nc(CCCCCCCCc3nn(CNc4ccc(OC)cc4)c(=S)o3)oc2=S)cc1	> 100 µM
CN(C)C(=S)/N=c1\ssc(=Nc2ccccc2)n1-c1ccccc1	> 100 µM
C#CC(O)/C=C/C(O)CCCC(O)CC#CC(O)C#CCCCCC(O)/C=C/CCCC(=O)CCCCCCCCCCCCCCCC(O)C(O)C#CC(=O)O (stereo unspecified)	> 25 µM
COc1cccc(C2C(C#N)=C(N)Oc3cc(OCCCCCC[P+](c4ccccc4)(c4ccccc4)c4ccccc4)ccc32)c1 (stereo unspecified)	1.69 µM
Cc1ccc(N2Cc3c(ccc4ccccc34)OP2(=S)N2CCCC2)cc1 (stereo unspecified)	> 100 µM
COC(=O)c1c(C(=O)O)c(-c2ccccc2)c(-c2ccccc2)c(-c2ccccc2)c1-c1ccccc1	> 100 µM

* * *

Test system: MDA-N
Experiment: NCI tumour cell line growth inhibition, 48 h
Known TGI of a selection of compounds

COMPOUND	TARGET OF ASSAY	TGI
O=S1(=O)N=C(SCc2c[nH]c3ccccc23)N(c2ccccc2)c2ccncc21	MDA-N	> 100 µM
O=C(NC1=C(Cl)C(=O)c2ccccc2C1=O)C(=O)c1c(O)c2ccccc2oc1=O	MDA-N	2.7 µM
CCOC(=O)C(Cc1cc(OC)c(CC(C(=O)OCC)C(=O)OCC)cc1OC)C(=O)OCC	MDA-N	> 100 µM
COc1c(NC(C)=O)c2ccccc2c2ccccc12	MDA-N	> 100 µM
COc1ccc(/C=C/C(=O)c2cc(CN(C)C)c(O)c(CN(C)C)c2)cc1	MDA-N	67.1 µM
CSCCC(NC(=O)C(Cc1c[nH]c2ccccc12)NC(=O)CCNC(=O)OC(C)(C)C)C(=O)NC(CC(=O)O)C(=O)NC(Cc1ccccc1)C(N)=O (stereo not given)	MDA-N	> 50 µM
CCOC(=O)C1=C(N2CCCC2)C(=O)C(C(=O)OCC)C1 (stereo not given)	MDA-N	> 100 µM
COc1ccc(Cn2c(=O)c(OS(=O)(=O)C(F)(F)F)c(C)c3cc4ccccc4cc32)cc1	MDA-N	> 100 µM
Cc1cc(NS(=O)(=O)c2ccc(Nc3c4ccccc4nc4c(C(=O)NC(CO)(CO)CO)cccc34)cc2)no1	MDA-N	> 100 µM
CCCC(=O)Nc1cc(/C=C/C(=O)N2C[C@@H]3C[C@]34C2=CC(=O)c2[nH]cc(C)c24)n(C)c1	MDA-N	0.879 µM

* * *

System: UACC-257 melanoma
Experiment: NCI tumour cell line growth inhibition, 48 h
Recorded TGI values for a group of compounds are listed next.
PROPERTY NAME: TGI

COMPOUND	PROPERTY NAME	RESULT
Nc1ccccc1SC(/C=C/NNC1=NC(c2ccccc2)C(c2ccccc2)=NN1)c1ccccc1 (stereo unspecified)	TGI	28.1 µM
Cn1cnnc1Sc1c([N+](=O)[O-])nc(-c2ccc([N+](=O)[O-])cc2)n1C	TGI	29.5 µM
CNCC(SC)c1ccc(O)c(O)c1 (stereo unspecified)	TGI	27.9 µM
COC1(C)CCC(OS(C)(=O)=O)CO1 (stereo unspecified)	TGI	> 100 µM
C/C(CC(O)(C(F)(F)F)C(F)(F)F)=N\O	TGI	> 10 µM
C=C1C(=O)OC2C[C@@]3(C)CCCC(=C)C3CC12 (stereo partly specified)	TGI	22 µM
O=[N+]([O-])/C(Cl)=C(\NCCO)C(Cl)=C(Cl)Cl	TGI	> 100 µM
O=C(NC1=C(Cl)C(=O)c2ccccc2C1=O)C(=O)c1c(O)c2ccccc2oc1=O	TGI	3.17 µM
Cc1cccc(NC(=S)Nc2cccc(Cl)c2)n1	TGI	> 100 µM
NCCOCCOCC(=O)O	TGI	> 100 µM
CN(C)CCN=c1nc2c(c(N)n1-c1ccccc1)c(=S)n(-c1ccccc1)c(=S)n2-c1ccccc1	TGI	3.75 µM
COc1ccc(N=c2nc3sc4cc(Cl)ccc4n3c(N)c2C#N)cc1	TGI	> 100 µM
COc1c(OC2OC(C)C(O)C(O)C2O)c(OC)c2oc(-c3ccc(O)cc3)cc(=O)c2c1O (stereo unspecified)	TGI	28.1 µM
CN(C)Cc1cc(/C=C/C(=O)c2ccc(Br)cc2)cc(CN(C)C)c1O	TGI	33.7 µM
O=C1OC2(CCCCC2)C(Oc2ccc(Cl)cc2)=C1F	TGI	66.8 µM
CCOC(=O)C1=C(N2CCCC2)C(=O)C(C(=O)OCC)C1 (stereo unspecified)	TGI	> 100 µM
COC1CCC(OC)C(c2nc3sccn3c2/C=N/N=C(N)N)C1 (stereo unspecified)	TGI	44.1 µM
O=C(NCCCN1CCN(CCCNC(=O)Nc2cc(Cl)ccc2Cl)CC1)Nc1cc(Cl)ccc1Cl	TGI	34 µM
O=C(Oc1cncc(Cl)c1)c1cc2ccccc2sc1=O	TGI	> 100 µM
COc1ccc(C2C3=C(COC3=O)Oc3cc4c(cc32)OCO4)cc1OC (stereo unspecified)	TGI	> 100 µM
O=Cn1c2ccccc2c2ccccc21	TGI	> 100 µM
c1ccc(C2N=C(c3ccccn3)C(c3ccccn3)=NC2c2ccccc2)cc1 (stereo unspecified)	TGI	> 100 µM
O=C(CC1(O)CCCCC1)OC1CCCC1	TGI	> 100 µM
COC(OC)c1cccnc1C	TGI	> 100 µM
CCN(CC)c1ccc(/C=N/N=C(N)N)cc1	TGI	23.9 µM
COc1ccc(N=C(C)C(C)=Nc2ccc(OC)cc2)cc1	TGI	> 100 µM
NC(=S)c1cccc(C2Nc3ccccc3O2)c1 (stereo unspecified)	TGI	> 100 µM
COc1cc(C2CC(c3ccc(Cl)cc3)=NN2C(C)=O)ccc1Oc1ccnc2cc(Cl)ccc12 (stereo unspecified)	TGI	> 100 µM
O=C(O)CCN1C(=S)CSC1=S	TGI	> 100 µM
CCOC(=N)CC(=O)Nc1ccccc1CC	TGI	> 100 µM
COC(=O)[C@@H]1C=CCN1S(=O)(=O)c1ccc(C)cc1	TGI	> 100 µM
